Reference source: patent US8410112B2

Molecular target: full-length ATR (Homo sapiens)
Construct: in the presence of 5 nM full-length ATR
Assay: ATR Inhibition Assay (radioactive-phosphate incorporation)
Conditions: Ki(app); 5 nM full-length ATR, 10 μM ATP, 800 μM target peptide, 25° C.
Procedure: Test compounds were screened for their ability to inhibit ATR kinase using a radioactive-phosphate incorporation assay. Assays were carried out in a mixture of 50 mM Tris/HCl (pH 7.5), 10 mM MgCl2 and 1 mM DTT. […] After removing mean background values for all of the data points, Ki(app) data were calculated from non-linear regression analysis of the initial rate data using the Prism software package (GraphPad Prism version 3.0cx for Macintosh, GraphPad Software, San Diego Calif., USA).

# compound, targetOrTestSystem, Ki
rows = [
    ("Nc1ncc(N2C[C@@H]3CCC(O)[C@@H]3C2)nc1-c1nnc(-c2ccccc2)o1 (stereo in doubt)", "full-length ATR (Homo sapiens)", "< 100 nM"),
    ("Nc1ncc(-n2ccccc2=O)nc1-c1nc2ccccc2[nH]1", "full-length ATR (Homo sapiens)", "< 100 nM"),
    ("CCS(=O)(=O)N1CC2CN(c3cnc(N)c(-c4nnc(-c5ccc(CNC)cc5)o4)n3)CC2C1 (stereo not drawn)", "full-length ATR (Homo sapiens)", "1000 to 10000 nM"),
    ("Cc1ccc2nc(-c3nc(N4CCN(c5ccccc5C#N)CC4)cnc3N)[nH]c2c1", "full-length ATR (Homo sapiens)", "1000 to 10000 nM"),
    ("COCCOCC(=O)N1CC=C(c2cnc(N)c(-c3nc4ccccc4[nH]3)n2)CC1", "full-length ATR (Homo sapiens)", "100 to 1000 nM"),
    ("COCCOCC(=O)N[C@H]1CCN(c2cnc(N)c(-c3nc4ccccc4[nH]3)n2)C1", "full-length ATR (Homo sapiens)", "1000 to 10000 nM"),
    ("Nc1ncc(N2CCN(C(=O)N3CCOCC3)CC2)nc1C(=O)Nc1ccccn1", "full-length ATR (Homo sapiens)", "1000 to 10000 nM"),
    ("Nc1ncc(N2CCNCC2)nc1C(=O)Nc1ccccn1", "full-length ATR (Homo sapiens)", "1000 to 10000 nM"),
    ("CC(C)C(=O)N1CCN(c2cnc(N)c(-c3nnc(-c4ccccc4)o3)n2)CC1", "full-length ATR (Homo sapiens)", "100 to 1000 nM"),
    ("COCC(=O)N1CC=C(c2cnc(N)c(-c3nnc(-c4ccccc4)o3)n2)CC1", "full-length ATR (Homo sapiens)", "< 100 nM"),
    ("Nc1ncc(N2Cc3ccccc3C2=O)nc1-c1nc2ccccc2[nH]1", "full-length ATR (Homo sapiens)", "100 to 1000 nM"),
    ("CCS(=O)(=O)N1CC=C(c2cnc(N)c(C(=O)Nc3ccccn3)n2)CC1", "full-length ATR (Homo sapiens)", "100 to 1000 nM"),
    ("CCCS(=O)(=O)N1CCN(c2cnc(N)c(C(=O)Nc3ccccn3)n2)CC1", "full-length ATR (Homo sapiens)", "100 to 1000 nM"),
    ("Nc1ncc(N2CCN(C(=O)COc3ccccc3)CC2)nc1C(=O)Nc1ccccn1", "full-length ATR (Homo sapiens)", "1000 to 10000 nM"),
    ("Nc1ncc(N2CCN(C(=O)C3CCCCC3)CC2)nc1-c1nc2ccccc2[nH]1", "full-length ATR (Homo sapiens)", "100 to 1000 nM"),
    ("Cc1ccc2nc(-c3nc(N4CCN(c5nccs5)CC4)cnc3N)[nH]c2c1", "full-length ATR (Homo sapiens)", "100 to 1000 nM"),
    ("Cc1ccc2nc(-c3nc(-n4ccc(=O)cc4)cnc3N)[nH]c2c1", "full-length ATR (Homo sapiens)", "< 100 nM"),
    ("CCNC(=O)[C@H]1CCCN1c1cnc(N)c(-c2nnc(-c3ccc(CNC)cc3)o2)n1", "full-length ATR (Homo sapiens)", "100 to 1000 nM"),
    ("COC1CCN(c2cnc(N)c(-c3nc4ccc(C)cc4[nH]3)n2)CC1", "full-length ATR (Homo sapiens)", "1000 to 10000 nM"),
    ("CN(C)S(=O)(=O)N1CC=C(c2cnc(N)c(-c3nc4cccnc4[nH]3)n2)CC1", "full-length ATR (Homo sapiens)", "< 100 nM"),
    ("Cc1ccc2nc(-c3nc(N4CCN(C(=O)c5ccco5)CC4)cnc3N)[nH]c2c1", "full-length ATR (Homo sapiens)", "100 to 1000 nM"),
    ("CC(C)(C)OC(=O)N1CC=C(c2cnc(N)c(-c3noc(-c4ccccc4)n3)n2)CC1", "full-length ATR (Homo sapiens)", "100 to 1000 nM"),
    ("Nc1ncc(N2CCN(C(=O)Cc3ccccc3)CC2)nc1-c1nnc(-c2ccccc2)o1", "full-length ATR (Homo sapiens)", "100 to 1000 nM"),
    ("Nc1ncc(N2CCNCC2)nc1-c1nnc(-c2ccccc2)o1", "full-length ATR (Homo sapiens)", "1000 to 10000 nM"),
    ("Nc1ncc(C2=CCN(S(=O)(=O)C3CC3)CC2)nc1-c1nc2ccccc2[nH]1", "full-length ATR (Homo sapiens)", "< 100 nM"),
    ("Nc1ncc(N2CCN(S(=O)(=O)C3CCCC3)CC2)nc1-c1nnc(-c2ccccc2)o1", "full-length ATR (Homo sapiens)", "100 to 1000 nM"),
    ("CCS(=O)(=O)N1CCN(c2cnc(N)c(-c3nnc(-c4cccc(N)c4)[nH]3)n2)CC1", "full-length ATR (Homo sapiens)", "100 to 1000 nM"),
    ("Cc1cccc(C)c1C(=O)N1CC=C(c2cnc(N)c(-c3nc4ccccc4[nH]3)n2)CC1", "full-length ATR (Homo sapiens)", "< 100 nM"),
    ("Nc1ncc(C2=CCN(C(=O)c3cccnc3)CC2)nc1-c1nnc(-c2ccccc2)o1", "full-length ATR (Homo sapiens)", "< 100 nM"),
    ("Nc1ncc(C2=CCN(C(=O)OCc3ccccc3)CC2)nc1-c1nc2ccccc2[nH]1", "full-length ATR (Homo sapiens)", "100 to 1000 nM"),
    ("CCS(=O)(=O)N1CCN(c2cnc(N)c(-c3nnc(-c4cccc(F)c4)o3)n2)CC1", "full-length ATR (Homo sapiens)", "100 to 1000 nM"),
    ("Cc1ccc2nc(-c3nc(N4CCC(N(C)C)CC4)cnc3N)[nH]c2c1", "full-length ATR (Homo sapiens)", "1000 to 10000 nM"),
    ("COC(=O)N1CCN(c2cnc(N)c(-c3nc4ccccc4[nH]3)n2)CC1", "full-length ATR (Homo sapiens)", "1000 to 10000 nM"),
]

###

In this section we review reported pKi values for a set of compounds.
Molecular target: full-length ATR (Homo sapiens, UniProt Q13535)
Construct: in the presence of 5 nM full-length ATR
Sequence (Q13535 whole entry): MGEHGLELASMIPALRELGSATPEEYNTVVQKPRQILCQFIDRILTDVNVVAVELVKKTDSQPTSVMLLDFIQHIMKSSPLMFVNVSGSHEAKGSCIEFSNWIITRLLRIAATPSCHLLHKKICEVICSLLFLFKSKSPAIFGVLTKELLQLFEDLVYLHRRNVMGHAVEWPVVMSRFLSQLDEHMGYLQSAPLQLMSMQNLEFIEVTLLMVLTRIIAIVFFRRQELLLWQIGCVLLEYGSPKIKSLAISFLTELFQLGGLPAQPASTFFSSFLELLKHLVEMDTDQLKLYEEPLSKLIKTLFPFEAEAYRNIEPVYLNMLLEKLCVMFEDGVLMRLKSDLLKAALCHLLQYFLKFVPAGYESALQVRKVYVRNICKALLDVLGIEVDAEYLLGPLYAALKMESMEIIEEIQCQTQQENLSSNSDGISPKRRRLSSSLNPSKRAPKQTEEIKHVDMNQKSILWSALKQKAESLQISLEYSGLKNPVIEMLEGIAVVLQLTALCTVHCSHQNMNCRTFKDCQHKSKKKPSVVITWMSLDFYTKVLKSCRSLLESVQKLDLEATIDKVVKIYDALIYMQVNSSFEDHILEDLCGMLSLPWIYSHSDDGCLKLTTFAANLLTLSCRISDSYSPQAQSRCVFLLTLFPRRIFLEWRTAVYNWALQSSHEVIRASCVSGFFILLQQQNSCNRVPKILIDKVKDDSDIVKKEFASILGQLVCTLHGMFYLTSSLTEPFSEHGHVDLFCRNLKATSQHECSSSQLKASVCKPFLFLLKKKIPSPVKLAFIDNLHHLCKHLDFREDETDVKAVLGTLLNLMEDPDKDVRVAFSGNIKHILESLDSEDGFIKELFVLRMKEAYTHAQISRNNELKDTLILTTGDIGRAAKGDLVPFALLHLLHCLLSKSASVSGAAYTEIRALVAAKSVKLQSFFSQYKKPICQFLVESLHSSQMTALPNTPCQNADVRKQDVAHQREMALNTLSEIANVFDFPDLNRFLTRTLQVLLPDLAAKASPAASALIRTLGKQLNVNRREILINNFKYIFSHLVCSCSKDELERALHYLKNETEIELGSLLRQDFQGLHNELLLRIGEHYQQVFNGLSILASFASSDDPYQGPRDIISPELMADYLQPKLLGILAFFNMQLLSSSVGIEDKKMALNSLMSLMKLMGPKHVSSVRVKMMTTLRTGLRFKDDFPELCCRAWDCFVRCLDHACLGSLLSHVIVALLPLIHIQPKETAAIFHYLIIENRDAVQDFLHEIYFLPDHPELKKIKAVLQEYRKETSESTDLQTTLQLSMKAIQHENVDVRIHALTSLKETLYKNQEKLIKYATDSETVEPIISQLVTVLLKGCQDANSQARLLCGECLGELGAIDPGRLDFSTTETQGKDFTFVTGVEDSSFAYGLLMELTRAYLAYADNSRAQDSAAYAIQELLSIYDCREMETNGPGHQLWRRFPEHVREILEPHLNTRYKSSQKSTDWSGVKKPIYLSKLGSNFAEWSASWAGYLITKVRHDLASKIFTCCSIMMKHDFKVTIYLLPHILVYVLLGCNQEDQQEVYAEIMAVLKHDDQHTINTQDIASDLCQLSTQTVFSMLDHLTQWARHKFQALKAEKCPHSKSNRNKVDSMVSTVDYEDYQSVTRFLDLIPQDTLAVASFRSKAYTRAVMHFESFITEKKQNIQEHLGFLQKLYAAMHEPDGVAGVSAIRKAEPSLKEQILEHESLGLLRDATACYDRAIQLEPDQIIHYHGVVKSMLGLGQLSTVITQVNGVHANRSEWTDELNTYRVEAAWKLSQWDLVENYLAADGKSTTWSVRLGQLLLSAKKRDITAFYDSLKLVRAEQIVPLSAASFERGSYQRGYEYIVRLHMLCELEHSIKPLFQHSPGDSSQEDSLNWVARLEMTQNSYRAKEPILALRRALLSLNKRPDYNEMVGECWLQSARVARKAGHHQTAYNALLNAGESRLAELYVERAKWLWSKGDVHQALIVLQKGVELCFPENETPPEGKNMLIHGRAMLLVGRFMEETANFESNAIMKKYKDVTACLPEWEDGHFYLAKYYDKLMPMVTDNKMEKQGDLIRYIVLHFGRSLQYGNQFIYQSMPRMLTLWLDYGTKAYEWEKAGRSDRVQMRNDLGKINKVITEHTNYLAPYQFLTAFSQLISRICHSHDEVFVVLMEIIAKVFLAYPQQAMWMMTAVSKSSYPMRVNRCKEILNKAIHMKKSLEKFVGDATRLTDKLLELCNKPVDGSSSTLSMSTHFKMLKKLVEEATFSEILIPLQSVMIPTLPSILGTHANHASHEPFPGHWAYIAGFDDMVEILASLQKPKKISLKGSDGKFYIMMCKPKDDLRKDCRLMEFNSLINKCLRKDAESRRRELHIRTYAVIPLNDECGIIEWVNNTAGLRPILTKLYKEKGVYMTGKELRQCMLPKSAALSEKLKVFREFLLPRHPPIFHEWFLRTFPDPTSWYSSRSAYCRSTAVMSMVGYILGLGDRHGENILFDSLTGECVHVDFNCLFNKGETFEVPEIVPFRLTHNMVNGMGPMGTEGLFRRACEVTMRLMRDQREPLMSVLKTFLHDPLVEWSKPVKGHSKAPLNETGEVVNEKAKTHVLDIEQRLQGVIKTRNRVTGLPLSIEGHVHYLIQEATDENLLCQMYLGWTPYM
Test: ATR Inhibition Assay (radioactive-phosphate incorporation)
Conditions: Ki(app); 5 nM full-length ATR, 10 μM ATP, 800 μM target peptide, 25° C.
Experimental: Test compounds were screened for their ability to inhibit ATR kinase using a radioactive-phosphate incorporation assay. Assays were carried out in a mixture of 50 mM Tris/HCl (pH 7.5), 10 mM MgCl2 and 1 mM DTT. […] After removing mean background values for all of the data points, Ki(app) data were calculated from non-linear regression analysis of the initial rate data using the Prism software package (GraphPad Prism version 3.0cx for Macintosh, GraphPad Software, San Diego Calif., USA).
pKi: −log10 of the molar value.

# compound, pKi
measured = [
    ("CCC(CC)C(=O)N[C@H]1CCN(c2cnc(N)c(-c3nc4ccccc4[nH]3)n2)C1 [Compound I-211]", "5.00 to 6.00"),
    ("Nc1ncc(N2CCN(S(=O)(=O)Cc3ccccc3)CC2)nc1-c1nnc(-c2ccccc2)o1 [Compound I-99]", "6.00 to 7.00"),
    ("CC(=O)NC1CN(c2cnc(N)c(-c3nnc(-c4ccccc4)o3)n2)C1 [Compound I-282]", "5.00 to 6.00"),
    ("CCS(=O)(=O)N1CC=C(c2cnc(N)c(-c3nc4ccccc4[nH]3)n2)CC1 [Compound I-71]", "> 7.00"),
    ("Cc1ccc2nc(-c3nc(N4CCC5(CC4)OCCO5)cnc3N)[nH]c2c1 [Compound I-33]", "5.00 to 6.00"),
    ("Nc1ncc(C2=CCN(C(=O)C3CCC3)CC2)nc1-c1nc2ccccc2[nH]1 [Compound I-200]", "> 7.00"),
    ("CNCc1ccc(-c2nnc(-c3nc(N4CC[C@H](OC(=O)NCCOC)C4)cnc3N)o2)cc1 [Compound I-373]", "6.00 to 7.00"),
    ("CCC(=O)NC1CCN(c2cnc(N)c(-c3nnc(-c4ccc(CNC)cc4)o3)n2)CC1 [Compound I-366]", "6.00 to 7.00"),
]
